# PROCEDURE SUMMARY: IV/PO pharmacokinetic study in dogs
# Type: in vivo, male beagle dogs
# Design: concentration or dose not given beside the values
# ASSAY CONDITIONS: male, beagle, plasma; dog, PO; read-out: AUClast Mean
QUANTITY MEASURED: AUC(0-t) (ng·h/mL)
Provide the reading as a plain figure in ng·h/mL.

Below, each entry is followed by its recorded AUC(0-t) result.
COMPOUND | READOUT UNITS | AUC(0-t)
C[C@H](C[C@@H](Cc1ccc(-c2cc(Cl)ccc2F)cc1)NC(=O)c1cnco1)C(=O)O [Comparison Compound C4] | ng·h/mL | 30
COc1cc(C(=O)N[C@H](Cc2ccc(-c3cc(Cl)ccc3F)cc2)C[C@@H](O)C(=O)O)on1 [Comparison Compound C2] | ng·h/mL | 160
CCc1ncc(C(=O)N[C@H](Cc2ccc(-c3cc(Cl)ccc3F)cc2)C[C@@H](C)C(=O)O)o1 [Comparison Compound C3] | ng·h/mL | 130

Query compound follows.
# compound Cc1cnc(C(=O)N[C@H](Cc2ccc(-c3cc(Cl)ccc3F)cc2)C[C@@H](O)C(=O)O)o1 [Compound 1] ; its AUC(0-t) = 530
